- EXPERIMENTAL SYSTEM: horse serum butyrylcholinesterase (eqBChE) (Equus caballus, UniProt P81908)
- Construct: AChE (from electric eel) and BChE (from horse serum); from tissue; host or cells: horse serum
- Sequence (P81908 whole entry): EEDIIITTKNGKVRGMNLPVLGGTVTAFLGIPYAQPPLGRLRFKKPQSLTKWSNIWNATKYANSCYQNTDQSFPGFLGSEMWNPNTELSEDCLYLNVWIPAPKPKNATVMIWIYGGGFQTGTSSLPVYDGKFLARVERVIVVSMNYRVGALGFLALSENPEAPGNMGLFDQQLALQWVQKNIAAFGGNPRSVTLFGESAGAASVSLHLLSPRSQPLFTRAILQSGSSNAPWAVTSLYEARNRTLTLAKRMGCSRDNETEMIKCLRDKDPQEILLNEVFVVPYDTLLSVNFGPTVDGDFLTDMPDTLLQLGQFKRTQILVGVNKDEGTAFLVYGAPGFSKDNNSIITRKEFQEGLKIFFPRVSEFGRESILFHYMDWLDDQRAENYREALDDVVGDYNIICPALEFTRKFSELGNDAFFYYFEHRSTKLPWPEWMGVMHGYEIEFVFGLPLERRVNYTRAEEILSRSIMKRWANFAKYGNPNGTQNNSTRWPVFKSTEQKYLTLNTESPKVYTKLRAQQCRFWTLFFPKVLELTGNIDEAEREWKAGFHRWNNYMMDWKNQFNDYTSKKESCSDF
- METHOD NOTES: biochemical
- EXPERIMENTAL CONTEXT: horse serum BChE; Cheng–Prousoff from IC50; read-out: Ki BChE
pKi: −log10 of the molar value.
OBSERVABLE: pKi

• N=C(N)N1CCC(C(=O)Nc2cccc(OCc3ccc(-c4ccc(Cl)cc4)cc3)c2)CC1 = 7.05
• CC(C)N1CCC(C(=O)Nc2ccccc2OCc2cc(-c3ccc(Cl)cc3)on2)CC1 = 5.95
• N=C(N)N1CCC(C(=O)Nc2ccccc2OCc2ccc(Cl)cc2)CC1 = 5.09
• N=C(N)N1CCC(C(=O)Nc2cccc(OCc3cc(-c4ccc(Cl)s4)on3)c2)CC1 = 5.79

* * *

- EXPERIMENTAL SYSTEM: human recombinant fXa (Homo sapiens)
- Construct: purchased Chromogenix AB-Instrumentation Laboratories (Milan, Italy)
- Sequence (P00742 235-488 limits assumed): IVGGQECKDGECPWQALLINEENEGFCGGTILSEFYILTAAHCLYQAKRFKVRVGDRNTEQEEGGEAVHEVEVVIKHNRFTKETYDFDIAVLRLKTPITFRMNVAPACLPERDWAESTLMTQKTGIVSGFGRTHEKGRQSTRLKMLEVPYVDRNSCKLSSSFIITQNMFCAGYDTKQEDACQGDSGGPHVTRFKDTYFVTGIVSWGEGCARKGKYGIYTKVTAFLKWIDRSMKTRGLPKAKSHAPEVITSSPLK
- Sequence (P00742 41-179 partner limits assumed): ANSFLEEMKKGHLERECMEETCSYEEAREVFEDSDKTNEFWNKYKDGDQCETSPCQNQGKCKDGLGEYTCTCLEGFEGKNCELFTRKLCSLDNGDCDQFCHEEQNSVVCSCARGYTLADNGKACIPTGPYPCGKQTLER
- METHOD NOTES: biochemical
OBSERVABLE: Ki (nM)

• N=C(N)N1CCC(C(=O)Nc2cccc(OCc3cc(-c4ccc(Cl)s4)on3)c2)CC1 = 15

* * *

- EXPERIMENTAL SYSTEM: electric eel acetylcholinesterase (eeAChE) (Electrophorus electricus)
- Construct: AChE (from electric eel) and BChE (from horse serum); from tissue
- METHOD NOTES: biochemical
- Type: biochemical
- EXPERIMENTAL CONTEXT: electric eel AChE; Cheng–Prousoff from IC50; read-out: Ki AChE
pKi: −log10 of the molar value.
OBSERVABLE: pKi

- N=C(N)N1CCC(C(=O)Nc2cccc(OCc3ccc(-c4ccc(Cl)cc4)cc3)c2)CC1: 5.24
- N=C(N)N1CCC(C(=O)Nc2cccc(OCc3cc(-c4cccc(Cl)c4)on3)c2)CC1: 5.00
- O=C(Nc1cccc(CCc2ccc(F)cc2)c1)C1CCN(c2ccncc2)CC1: 6.31
- O=C(Nc1ccc(OCc2ccc(F)cc2)cc1)C1CCN(C2CCCC2)CC1: 5.45
- O=C(Nc1ccc(F)cc1)c1cccc(NC(=O)C2CCN(c3ccncc3)CC2)c1: 6.57
- CC(C)N1CCC(C(=O)Nc2cccc(OCc3cc(-c4ccc(Cl)cc4)on3)c2)CC1: 5.20
- CC(C)N1CCC(C(=O)Nc2cccc(OCc3ccc(F)cc3)c2)CC1: 4.81
- O=C(Nc1ccc(F)cc1)Nc1cccc(NC(=O)C2CCN(c3ccncc3)CC2)c1: 6.13
- N=C(N)N1CCC(C(=O)Nc2cccc(OCc3cc(-c4ccc(Cl)cc4)on3)c2)CC1: 4.96
- O=C(Nc1cccc(OCc2ccc(F)cc2)c1)C1CCN(c2ccncc2)CC1: 6.62
- O=C(NCc1ccc(F)cc1)c1cccc(NC(=O)C2CCN(c3ccncc3)CC2)c1: 6.59
- N=C(N)N1CCC(C(=O)Nc2cccc(OCc3ccc(F)cc3)c2)CC1: 5.00
- O=C(Nc1ccc(OCc2cccc(F)c2)cc1)C1CCN(c2ccncc2)CC1: 5.41
- CC(C)N1CCC(C(=O)Nc2ccc(OCc3ccc(F)cc3)cc2)CC1: 5.20
- CC(C)N1CCC(C(=O)Nc2cccc(OCc3cc(-c4ccc(Cl)s4)on3)c2)CC1: 5.29
- O=C(Nc1cccc(OCCc2ccc(F)cc2)c1)C1CCN(c2ccncc2)CC1: 6.19
- O=C(Nc1cccc(OCCc2cccc(F)c2)c1)C1CCN(c2ccncc2)CC1: 6.43

* * *

- EXPERIMENTAL SYSTEM: human recombinant fXa (Homo sapiens)
- Construct: purchased Chromogenix AB-Instrumentation Laboratories (Milan, Italy)
- METHOD NOTES: biochemical
- EXPERIMENTAL CONTEXT: human recombinant fXa; Cheng–Prousoff from IC50; pH 8; read-out: Ki fXa
pKi: −log10 of the molar value.
OBSERVABLE: pKi

• O=C(Nc1ccc(F)cc1)Nc1cccc(NC(=O)C2CCN(c3ccncc3)CC2)c1 = 4.78
• N=C(N)N1CCC(C(=O)Nc2cccc(OCc3cc(-c4cccc(Cl)c4)on3)c2)CC1 = 6.41
• O=C(Nc1ccc(OCc2cccc(F)c2)cc1)C1CCN(c2ccncc2)CC1 = 4.60
• O=C(Nc1cccc(OCc2cccc(F)c2)c1)C1CCN(c2ccncc2)CC1 = 5.25
• O=C(Nc1cccc(OCc2ccc(F)cc2)c1)C1CCN(c2ccncc2)CC1 = 5.96
• CC(C)N1CCC(C(=O)Nc2ccccc2OCc2ccc(Cl)cc2)CC1 = 6.32
• CC(C)N1CCC(C(=O)Nc2cccc(OCc3cc(-c4ccc(Cl)s4)on3)c2)CC1 = 7.05
• CC(C)N1CCC(C(=O)Nc2ccccc2OCc2ccc(F)cc2)CC1 = 4.98
• O=C(NCc1ccc(F)cc1)c1cccc(NC(=O)C2CCN(c3ccncc3)CC2)c1 = 5.62
• O=C(Nc1cccc(CCc2ccc(F)cc2)c1)C1CCN(c2ccncc2)CC1 = 4.42
• CC(C)N1CCC(C(=O)Nc2cccc(OCc3ccc(-c4ccc(Cl)cc4)cc3)c2)CC1 = 6.78
• CC(C)N1CCC(C(=O)Nc2cccc(OCc3cc(-c4ccc(Cl)cc4)on3)c2)CC1 = 6.66
• N=C(N)N1CCC(C(=O)Nc2cccc(OCc3cc(-c4ccc(Cl)cc4)on3)c2)CC1 = 7.59
• N=C(N)N1CCC(C(=O)Nc2ccccc2OCc2cc(-c3ccc(Cl)cc3)on2)CC1 = 7.22
• N=C(N)N1CCC(C(=O)Nc2ccccc2OCc2ccc(Cl)cc2)CC1 = 4.22
• O=C(Nc1ccc(F)cc1)c1cccc(NC(=O)C2CCN(c3ccncc3)CC2)c1 = 5.39

* * *

// values below are reported Ki
- EXPERIMENTAL SYSTEM: bovine thrombin (Bos taurus, UniProt P00735)
- Construct: purchased Sigma-Aldrich (Milan, Italy)
- METHOD NOTES: biochemical
- EXPERIMENTAL CONTEXT: bovine serum thrombin; Cheng–Prousoff from IC50; pH 8; read-out: Ki thr
OBSERVABLE: Ki (µM)

- CC(C)N1CCC(C(=O)Nc2cccc(OCc3cc(-c4ccc(Cl)s4)on3)c2)CC1: 16
- N=C(N)N1CCC(C(=O)Nc2cccc(OCc3cc(-c4ccc(Cl)cc4)on3)c2)CC1: 0.63
- N=C(N)N1CCC(C(=O)Nc2cccc(OCc3ccc(-c4ccc(Cl)cc4)cc3)c2)CC1: 2.04
- O=C(NCc1ccc(F)cc1)c1cccc(NC(=O)C2CCN(c3ccncc3)CC2)c1: 10.6
- O=C(Nc1cccc(OCc2ccc(F)cc2)c1)C1CCN(c2ccncc2)CC1: 0.21
- O=C(Nc1ccc(OCc2cccc(F)c2)cc1)C1CCN(c2ccncc2)CC1: 6.7
- O=C(Nc1ccc(F)cc1)Nc1cccc(NC(=O)C2CCN(c3ccncc3)CC2)c1: 26.7
- O=C(Nc1cccc(CCc2ccc(F)cc2)c1)C1CCN(c2ccncc2)CC1: 3.72
- O=C(Nc1cccc(COc2ccc(F)cc2)c1)C1CCN(c2ccncc2)CC1: 26.8
- CC(C)N1CCC(C(=O)Nc2ccccc2OCc2cc(-c3ccc(Cl)cc3)on2)CC1: 13.7
- CC(C)N1CCC(C(=O)Nc2ccccc2OCc2ccc(F)cc2)CC1: 5.35
- N=C(N)N1CCC(C(=O)Nc2ccccc2OCc2cc(-c3ccc(Cl)cc3)on2)CC1: 21.2
- O=C(Nc1ccc(F)cc1)c1cccc(NC(=O)C2CCN(c3ccncc3)CC2)c1: 4.47
- N=C(N)N1CCC(C(=O)Nc2ccccc2OCc2ccc(Cl)cc2)CC1: 25.9
- O=C(Nc1cccc(OCCc2cccc(F)c2)c1)C1CCN(c2ccncc2)CC1: 2.14
- O=C(Nc1cccc(OCCc2ccc(F)cc2)c1)C1CCN(c2ccncc2)CC1: 4.46
- O=C(Nc1cccc(OCc2cccc(F)c2)c1)C1CCN(c2ccncc2)CC1: 0.006

* * *

- EXPERIMENTAL SYSTEM: bovine thrombin (Bos taurus, UniProt P00735)
- Construct: purchased Sigma-Aldrich (Milan, Italy)
- METHOD NOTES: biochemical
- EXPERIMENTAL CONTEXT: bovine serum thrombin; Cheng–Prousoff from IC50; pH 8; read-out: Ki thr
# Lookup of reported Ki keyed by entry
OBSERVABLE: Ki (µM)

* O=C(Nc1cccc(OCc2ccc(F)cc2)c1)C1CCN(C2CCCC2)CC1 [Compound 15] | 30
* N=C(N)N1CCC(C(=O)Nc2cccc(OCc3cc(-c4cccc(Cl)c4)on3)c2)CC1 [Compound 29] | 15.3
* N=C(N)N1CCC(C(=O)Nc2cccc(OCc3ccc(F)cc3)c2)CC1 [Compound 13] | 20

* * *

- EXPERIMENTAL SYSTEM: electric eel acetylcholinesterase (eeAChE) (Electrophorus electricus, UniProt O42275)
- Construct: AChE (from electric eel) and BChE (from horse serum); from tissue
- Sequence (O42275 24-633): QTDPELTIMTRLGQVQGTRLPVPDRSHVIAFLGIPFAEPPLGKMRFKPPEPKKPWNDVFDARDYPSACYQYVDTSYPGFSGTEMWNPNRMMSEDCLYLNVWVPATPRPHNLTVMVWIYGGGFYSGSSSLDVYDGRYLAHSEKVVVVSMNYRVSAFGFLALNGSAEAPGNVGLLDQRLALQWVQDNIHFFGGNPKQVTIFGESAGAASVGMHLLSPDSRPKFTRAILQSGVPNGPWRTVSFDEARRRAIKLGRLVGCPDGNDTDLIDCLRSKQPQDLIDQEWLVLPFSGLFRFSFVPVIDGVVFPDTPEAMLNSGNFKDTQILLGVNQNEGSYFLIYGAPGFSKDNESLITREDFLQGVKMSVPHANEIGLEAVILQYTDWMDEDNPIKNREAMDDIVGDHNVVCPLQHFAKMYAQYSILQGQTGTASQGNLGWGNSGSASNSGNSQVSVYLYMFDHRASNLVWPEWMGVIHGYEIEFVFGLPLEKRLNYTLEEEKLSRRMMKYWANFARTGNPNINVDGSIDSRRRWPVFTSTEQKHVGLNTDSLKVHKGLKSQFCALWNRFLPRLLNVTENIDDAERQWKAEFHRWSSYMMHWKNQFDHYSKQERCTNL
- METHOD NOTES: biochemical
- Type: biochemical
- EXPERIMENTAL CONTEXT: read-out: inhibition percentage ± SEM, AChE
Please note: true applies when inhibition at 10 µM is 30% or greater, and false applies otherwise.

• CC(C)N1CCC(C(=O)Nc2ccccc2OCc2ccc(Cl)cc2)CC1 [Compound 20] = false
• N=C(N)N1CCC(C(=O)Nc2cccc(OCc3cc(-c4ccc(Cl)s4)on3)c2)CC1 [Compound 31] = true
• N=C(N)N1CCC(C(=O)Nc2ccccc2OCc2ccc(Cl)cc2)CC1 [Compound 21] = true
• O=C(Nc1cccc(OCc2ccc(F)cc2)c1)C1CCN(C2CCCC2)CC1 [Compound 15] = false
• O=C(Nc1ccccc1OCc1cccc(F)c1)C1CCN(c2ccncc2)CC1 [Compound 5] = false
• O=C(Nc1ccccc1OCc1ccc(F)cc1)C1CCN(C2CCCC2)CC1 [Compound 19] = true
• N=C(N)N1CCC(C(=O)Nc2ccccc2OCc2cc(-c3ccc(Cl)cc3)on2)CC1 [Compound 27] = false
• CC(C)N1CCC(C(=O)Nc2ccccc2OCc2ccc(F)cc2)CC1 [Compound 18] = false
